# testedTarget: PTPμ (Homo sapiens (Human))
# Sequence (P28827 21-1452): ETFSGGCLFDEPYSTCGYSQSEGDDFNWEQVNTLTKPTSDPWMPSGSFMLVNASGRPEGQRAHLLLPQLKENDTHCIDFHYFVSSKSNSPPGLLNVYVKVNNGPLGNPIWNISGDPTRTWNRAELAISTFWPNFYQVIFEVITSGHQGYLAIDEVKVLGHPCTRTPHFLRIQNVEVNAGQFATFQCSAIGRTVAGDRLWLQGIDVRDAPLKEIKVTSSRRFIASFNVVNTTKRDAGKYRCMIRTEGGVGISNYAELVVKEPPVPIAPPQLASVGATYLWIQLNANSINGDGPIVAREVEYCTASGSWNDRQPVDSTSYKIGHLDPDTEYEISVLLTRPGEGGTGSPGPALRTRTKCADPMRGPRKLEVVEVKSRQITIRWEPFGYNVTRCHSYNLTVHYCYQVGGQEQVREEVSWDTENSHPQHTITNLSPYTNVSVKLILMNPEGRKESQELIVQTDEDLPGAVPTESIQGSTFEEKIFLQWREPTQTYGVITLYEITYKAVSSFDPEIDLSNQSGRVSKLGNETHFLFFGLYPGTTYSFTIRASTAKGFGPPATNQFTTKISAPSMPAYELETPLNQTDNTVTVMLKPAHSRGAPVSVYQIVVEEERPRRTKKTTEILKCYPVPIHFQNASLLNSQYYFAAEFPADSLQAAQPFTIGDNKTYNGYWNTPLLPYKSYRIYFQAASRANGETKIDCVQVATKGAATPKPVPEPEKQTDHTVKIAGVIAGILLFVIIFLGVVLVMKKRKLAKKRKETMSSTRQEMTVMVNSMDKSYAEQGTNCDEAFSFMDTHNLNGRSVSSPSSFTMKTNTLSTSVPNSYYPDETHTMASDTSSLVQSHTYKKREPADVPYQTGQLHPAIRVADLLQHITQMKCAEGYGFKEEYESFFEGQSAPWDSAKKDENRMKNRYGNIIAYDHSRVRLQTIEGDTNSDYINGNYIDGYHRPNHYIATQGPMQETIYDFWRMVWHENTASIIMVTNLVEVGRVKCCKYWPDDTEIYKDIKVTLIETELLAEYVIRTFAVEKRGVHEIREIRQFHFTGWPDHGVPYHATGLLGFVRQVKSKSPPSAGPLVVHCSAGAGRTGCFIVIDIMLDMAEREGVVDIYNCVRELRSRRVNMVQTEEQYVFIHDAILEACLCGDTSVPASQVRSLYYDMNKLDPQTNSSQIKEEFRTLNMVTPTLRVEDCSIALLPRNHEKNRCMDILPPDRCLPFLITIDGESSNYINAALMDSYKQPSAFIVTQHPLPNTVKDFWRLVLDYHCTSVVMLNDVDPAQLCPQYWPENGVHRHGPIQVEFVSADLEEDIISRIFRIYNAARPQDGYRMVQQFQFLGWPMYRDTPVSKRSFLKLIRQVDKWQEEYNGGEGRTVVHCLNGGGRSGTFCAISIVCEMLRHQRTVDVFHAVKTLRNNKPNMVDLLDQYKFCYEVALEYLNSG
# methodDescription: PTP selectivity panel, pNPP
# Type: biochemical, mammalian
# experimentalConditions: pNPP at Km
endpointName: pIC50
pIC50 is defined as minus the log10 of a concentration measured in mol/L.

For record Cn1c(-c2cccc(NC(=O)C(=O)Nc3ccc(-c4ccsc4)cc3)c2)c(I)c2cc(C(=O)O)c(O)cc21 [11a-1] the listed pIC50 is 5.48

###

# testedTarget: PEZ (Homo sapiens (Human))
endpointName: IC50 (µM)
The answer is to be given in µM; state only the numeric part.

IC50 in this record for Cn1c(-c2cccc(NC(=O)C(=O)Nc3ccc(-c4ccsc4)cc3)c2)c(I)c2cc(C(=O)O)c(O)cc21 [11a-1] : 5.3

###

# testedTarget: mPTPA (Mycobacterium tuberculosis (strain ATCC 25618 / H37Rv), UniProt P9WIA1)
# methodDescription: PTP selectivity panel, pNPP
# experimentalConditions: pNPP at Km
endpointName: IC50

The compound listed as Cn1c(-c2cccc(NC(=O)C(=O)Nc3ccc(-c4ccsc4)cc3)c2)c(I)c2cc(C(=O)O)c(O)cc21 [11a-1] shows IC50 equal to 1090 nM

###

List of IC50 values.
# testedTarget: SHP2 (Homo sapiens (Human), UniProt Q06124)
# Sequence (Q06124 whole entry, looked up): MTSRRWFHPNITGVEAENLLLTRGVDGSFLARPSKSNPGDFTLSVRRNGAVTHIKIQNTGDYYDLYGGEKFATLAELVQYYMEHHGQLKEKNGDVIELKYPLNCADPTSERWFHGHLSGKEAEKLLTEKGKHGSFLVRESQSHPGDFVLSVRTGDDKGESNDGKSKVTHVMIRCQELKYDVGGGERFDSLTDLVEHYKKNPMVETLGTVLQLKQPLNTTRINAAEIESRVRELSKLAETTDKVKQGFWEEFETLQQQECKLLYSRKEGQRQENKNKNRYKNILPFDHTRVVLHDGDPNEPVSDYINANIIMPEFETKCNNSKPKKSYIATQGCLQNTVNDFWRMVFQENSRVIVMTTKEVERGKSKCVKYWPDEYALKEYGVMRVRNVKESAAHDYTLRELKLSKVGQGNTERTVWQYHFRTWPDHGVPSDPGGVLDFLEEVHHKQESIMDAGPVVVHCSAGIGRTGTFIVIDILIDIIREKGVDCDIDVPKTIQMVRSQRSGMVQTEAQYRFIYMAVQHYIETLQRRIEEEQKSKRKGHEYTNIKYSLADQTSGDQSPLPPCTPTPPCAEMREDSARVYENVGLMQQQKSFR
Record the result as a number with its unit.

Example compounds with recorded IC50:
# compound, IC50
records = [
    ("Cn1c(-c2cccc(NC(=O)C(=O)Nc3ccc(OCc4ccccc4)c(Cl)c3)c2)c(I)c2cc(C(=O)O)c(O)cc21 [11a-3]", "660 nM"),
    ("Cn1c(-c2cccc(NC(=O)C(=O)Nc3ccccc3-c3nc4ccccc4[nH]3)c2)c(I)c2cc(C(=O)O)c(O)cc21 [11a-9]", "1250 nM"),
]

What the record says about Cn1c(-c2cccc(NC(=O)C(=O)Nc3nccs3)c2)c(I)c2cc(C(=O)O)c(O)cc21 [11a-16] : IC50 is 2310 nM

Data point: Cn1c(-c2cccc(NC(=O)CCC(=O)Nc3cccc(OCc4ccccc4)c3)c2)c(I)c2cc(C(=O)O)c(O)cc21 [11c-4] ; IC50 = 4500 nM

###

# testedTarget: PTPε (Homo sapiens (Human), UniProt P23469)
# Sequence (P23469 20-700): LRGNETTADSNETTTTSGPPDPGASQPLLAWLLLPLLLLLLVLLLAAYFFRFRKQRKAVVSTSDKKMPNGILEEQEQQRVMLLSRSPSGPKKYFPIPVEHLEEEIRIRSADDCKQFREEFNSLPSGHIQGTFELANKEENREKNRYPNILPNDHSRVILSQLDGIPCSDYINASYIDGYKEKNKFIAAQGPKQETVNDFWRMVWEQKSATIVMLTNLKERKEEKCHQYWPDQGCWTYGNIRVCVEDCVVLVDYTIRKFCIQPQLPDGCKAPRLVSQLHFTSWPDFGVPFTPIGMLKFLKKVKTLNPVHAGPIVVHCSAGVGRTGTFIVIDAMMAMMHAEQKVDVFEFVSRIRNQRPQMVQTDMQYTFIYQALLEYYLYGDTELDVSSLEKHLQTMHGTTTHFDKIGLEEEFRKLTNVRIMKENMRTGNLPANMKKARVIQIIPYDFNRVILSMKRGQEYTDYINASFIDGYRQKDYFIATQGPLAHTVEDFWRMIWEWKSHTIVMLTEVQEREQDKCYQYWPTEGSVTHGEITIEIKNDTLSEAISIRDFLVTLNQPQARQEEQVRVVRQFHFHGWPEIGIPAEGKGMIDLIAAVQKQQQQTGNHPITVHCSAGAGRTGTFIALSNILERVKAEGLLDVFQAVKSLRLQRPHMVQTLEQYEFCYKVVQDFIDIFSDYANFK
endpointName: IC50

Kindly note: PTPε (Homo sapiens (Human), UniProt P23469), Cn1c(-c2cccc(NC(=O)C(=O)Nc3ccc(-c4ccsc4)cc3)c2)c(I)c2cc(C(=O)O)c(O)cc21 [11a-1] , IC50 value reported: > 20 µM

###

# testedTarget: MKP5 (Homo sapiens (Human))
# Sequence (Q9Y6W6 whole entry, species assumed): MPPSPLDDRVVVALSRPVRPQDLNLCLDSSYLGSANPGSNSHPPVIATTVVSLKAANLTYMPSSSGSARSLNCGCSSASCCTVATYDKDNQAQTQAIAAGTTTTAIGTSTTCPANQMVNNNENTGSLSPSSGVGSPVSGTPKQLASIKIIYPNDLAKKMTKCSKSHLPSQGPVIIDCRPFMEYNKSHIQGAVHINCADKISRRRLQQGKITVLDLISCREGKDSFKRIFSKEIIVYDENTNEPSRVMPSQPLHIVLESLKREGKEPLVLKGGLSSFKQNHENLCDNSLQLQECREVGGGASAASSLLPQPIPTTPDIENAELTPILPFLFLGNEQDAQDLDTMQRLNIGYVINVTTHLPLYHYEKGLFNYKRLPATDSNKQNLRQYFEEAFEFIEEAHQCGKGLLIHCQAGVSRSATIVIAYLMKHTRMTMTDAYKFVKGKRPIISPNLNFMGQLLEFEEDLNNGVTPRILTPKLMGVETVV
endpointName: pIC50
pIC50 here: minus log base 10 of the concentration, concentration in moles per litre.

compound Cn1c(-c2cccc(NC(=O)C(=O)Nc3ccc(-c4ccsc4)cc3)c2)c(I)c2cc(C(=O)O)c(O)cc21 [11a-1] , pIC50 observed: 5.54

###

# testedTarget: PTPH1 (Homo sapiens (Human), UniProt P26045)
# Sequence (P26045 whole entry, species assumed): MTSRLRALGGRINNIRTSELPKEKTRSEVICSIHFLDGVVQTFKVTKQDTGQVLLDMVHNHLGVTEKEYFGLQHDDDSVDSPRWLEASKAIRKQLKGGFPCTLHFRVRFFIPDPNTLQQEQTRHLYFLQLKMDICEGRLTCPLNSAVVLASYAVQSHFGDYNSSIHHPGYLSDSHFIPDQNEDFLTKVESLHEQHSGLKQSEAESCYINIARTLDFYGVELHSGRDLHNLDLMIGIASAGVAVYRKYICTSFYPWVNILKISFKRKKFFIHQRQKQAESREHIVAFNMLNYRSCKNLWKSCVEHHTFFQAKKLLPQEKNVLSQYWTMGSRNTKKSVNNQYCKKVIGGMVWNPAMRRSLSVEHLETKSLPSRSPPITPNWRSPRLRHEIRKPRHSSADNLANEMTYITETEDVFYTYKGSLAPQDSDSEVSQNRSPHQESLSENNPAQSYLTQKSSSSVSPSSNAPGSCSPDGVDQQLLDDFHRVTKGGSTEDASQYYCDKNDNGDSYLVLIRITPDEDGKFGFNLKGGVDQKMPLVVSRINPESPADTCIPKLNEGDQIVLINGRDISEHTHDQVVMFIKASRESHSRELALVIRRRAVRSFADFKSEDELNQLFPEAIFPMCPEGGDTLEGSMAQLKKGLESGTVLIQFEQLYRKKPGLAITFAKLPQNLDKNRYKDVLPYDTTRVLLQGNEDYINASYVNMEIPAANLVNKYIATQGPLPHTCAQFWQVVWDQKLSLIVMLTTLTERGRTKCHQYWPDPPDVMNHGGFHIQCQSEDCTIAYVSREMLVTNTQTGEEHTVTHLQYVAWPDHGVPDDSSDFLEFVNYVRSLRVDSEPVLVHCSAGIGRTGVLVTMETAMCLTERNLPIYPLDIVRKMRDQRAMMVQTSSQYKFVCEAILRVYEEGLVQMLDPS
endpointName: IC50 (nM)
Give just the number in nM; leave the unit off.

Data point: Cn1c(-c2cccc(NC(=O)C(=O)Nc3ccc(-c4ccsc4)cc3)c2)c(I)c2cc(C(=O)O)c(O)cc21 [11a-1] ; IC50 = 1070

###

# testedTarget: SHP2 (D2C) (Homo sapiens (Human), UniProt Q06124)
# Sequence (Q06124 240-528): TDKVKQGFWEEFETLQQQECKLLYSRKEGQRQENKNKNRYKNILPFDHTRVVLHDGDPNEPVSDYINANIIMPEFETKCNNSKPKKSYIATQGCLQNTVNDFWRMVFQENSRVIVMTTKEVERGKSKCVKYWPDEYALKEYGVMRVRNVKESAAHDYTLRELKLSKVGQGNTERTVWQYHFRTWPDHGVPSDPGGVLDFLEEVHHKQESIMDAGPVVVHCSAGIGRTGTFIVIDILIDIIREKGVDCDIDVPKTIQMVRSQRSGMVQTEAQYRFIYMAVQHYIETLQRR
# methodDescription: SHP2 (D2C) pNPP inhibition assay, hits of library 7′a-c
# Type: biochemical
# experimentalConditions: pNPP substrate, pH 7, 25° C.; library 7′a / 7′c hits
endpointName: pIC50
Conceptually, pIC50 converts a concentration in mol/L into minus its log10.

Some compounds with known pIC50 results, for comparison:
# smilesStructure, experimentalResult
data = [
    ("Cn1c(-c2ccc(C(=O)Nc3cccc(OCc4ccccc4)c3)cc2)c(I)c2cc(C(=O)O)c(O)cc21", 5.62),
    ("Cn1c(-c2ccc(C(=O)O)cc2)c(I)c2cc(C(=O)O)c(O)cc21", 5.04),
]

Entry `Cn1c(CCCC(=O)Nc2cccc(OCc3ccccc3)c2)c(I)c2cc(C(=O)O)c(O)cc21` , pIC50 reported as 5.30
